# PROTOCOL DESCRIPTION: Stability test of mouse liver microsomes
# Assay type: in vitro ADME
# ASSAY CONDITIONS: 1 μM compound, 500 μg/ml mouse liver microsomes, NADPH regeneration system, 37° C.; read-out: Liver microsomal stability T1/2, Mouse
MEASURED PARAMETER: half-life at 1 μM (min)

Consider the worked cases shown below.
>>> value_reported("C=CC(=O)N1CCN([C@@H](CC2CC2)c2ccc([C@H](C)Nc3ncc4[nH]c(=O)n(C(C)C)c4n3)cc2)CC1")
4
>>> value_reported("C=CC(=O)N1CCN(C(CC2CC2)c2ccc(C(C)Nc3ncc4[nH]c(=O)n(C5CCCC5)c4n3)cc2)CC1 (stereo not shown)")
3.9

I. C=CC(=O)N1CCN([C@@H](CC2CC2)c2ccc([C@H](C)Nc3ncc4[nH]c(=O)n(CC)c4n3)cc2)CC1
II. C=CC(=O)N1CCN([C@@H](CC2CC2)c2ccc([C@H](C)Nc3ncc4c(n3)N(CC)C(=O)OC4)cc2)CC1 [LY-3410738, reference compound]
Hi there! Just curious which has the higher half-life at 1 μM between I and II . Write down the label attached to your selection.
I
(I: 4.4 min, II: 1.6 min)

----------
# MEASURED TARGET: mIDH1 R132H (Homo sapiens, UniProt O75874, R132H)
# Construct: expressed in transfected cells; host or cells: U87MG
# Sequence (O75874 whole entry R132H): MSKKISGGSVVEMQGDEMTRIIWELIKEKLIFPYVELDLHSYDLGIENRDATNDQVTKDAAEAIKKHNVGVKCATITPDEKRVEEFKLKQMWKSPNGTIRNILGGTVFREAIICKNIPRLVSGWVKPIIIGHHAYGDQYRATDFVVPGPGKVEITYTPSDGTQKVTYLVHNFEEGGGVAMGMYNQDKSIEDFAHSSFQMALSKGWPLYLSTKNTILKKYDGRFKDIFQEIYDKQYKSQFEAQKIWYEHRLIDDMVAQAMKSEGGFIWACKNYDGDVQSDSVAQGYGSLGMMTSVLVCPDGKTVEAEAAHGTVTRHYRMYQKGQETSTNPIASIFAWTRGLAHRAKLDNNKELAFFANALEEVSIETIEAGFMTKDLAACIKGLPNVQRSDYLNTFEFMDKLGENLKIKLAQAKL
# PROTOCOL DESCRIPTION: Detection of 2-HG in supernatant of U87-IDH1 R132H cells
# Format: cell-based
# ASSAY CONDITIONS: U-87 MG; 10 nM compound, 72 h, U87MG cells overexpressing mIDH1 R132H, LC-MS-MS; read-out: Inhibition rate on 2-HG in the supernatant of U87-IDH R132H cells, 10 nM
# Method: U87MG cells overexpressing the mIDH1 R132H mutation or HT1080 cells carrying IDH1 R132C were seeded in a 48-well plate and a 96-well plate at 50,000 cells/well and 10,000 cells/well, respectively. After the cells were incubated overnight for adhesion, the supernatants were removed. […] The 2-HG content in the culture media was analyzed by LC-MS-MS. The percentage inhibition and IC50 of the compounds on 2-HG in the supernatant were calculated as compared with the control group.
MEASURED PARAMETER: inhibition at 0.01 µM

>>> value_reported("C=CC(=O)N1CCC(N(C)C(CC2CC2)c2ccc([C@H](C)Nc3ncc4[nH]c(=O)n(CC)c4n3)cc2)CC1 (stereo partly drawn)")
"60 to 90%"
>>> value_reported("C=CC(=O)N1CCN(C(CC2CC2)c2ccc([C@H](C)Nc3ncc4[nH]c(=O)n(CC)c4n3)cc2)CC1 (stereo partly drawn)")
"> 90%"
>>> value_reported("C=CC(=O)N1CCN(C(CC2CC2)c2ccc([C@H](C)Nc3ncc4[nH]c(=O)n(C)c4n3)cc2)CC1 (stereo partly drawn)")
"60 to 90%"
>>> value_reported("C=CC(=O)N1CCN(C(CC2CC2)c2ccc([C@H](C)Nc3ncc4[nH]c(=O)n(C5CCC5)c4n3)cc2)CC1 (stereo partly drawn)")
"> 90%"
>>> value_reported("C=CC(=O)N1CCN(C(CC2CC2)c2ccc([C@H](C)Nc3ncc4[nH]c(=O)n(C5CCCC5)c4n3)cc2)CC1 (stereo partly drawn)")
"60 to 90%"

For mIDH1 R132H (Homo sapiens, UniProt O75874, R132H), give inhibition at 0.01 µM of the listed compound: C=CC(=O)N1CC(N(C)C(CC2CC2)c2ccc([C@H](C)Nc3ncc4[nH]c(=O)n(CC)c4n3)cc2)C1 (stereo partly drawn)
60 to 90%

# return inhibition at 0.01 µM for `C=CC(=O)N1CCN(C(CC)(CC)c2ccc([C@H](C)Nc3ncc4[nH]c(=O)n(CC)c4n3)cc2)CC1` , test system: mIDH1 R132H (Homo sapiens, UniProt O75874, R132H)
> 90%

Specify the recorded inhibition at 0.01 µM for C=CC(=O)N1CCN(C(CC23CC(C2)C3)c2ccc([C@H](C)Nc3ncc4[nH]c(=O)n(C5CCC5)c4n3)cc2)CC1 (stereo partly drawn) , system: mIDH1 R132H (Homo sapiens, UniProt O75874, R132H).
> 90%

Report inhibition at 0.01 µM on mIDH1 R132H (Homo sapiens, UniProt O75874, R132H) for this entry: C=CC(=O)N1CCN(C(CC2CC2)c2ccc([C@H](C)Nc3ncc4[nH]c(=O)n(C(C)C)c4n3)cc2)CC1 (stereo partly drawn)
> 90%

Quote mIDH1 R132H (Homo sapiens, UniProt O75874, R132H) inhibition at 0.01 µM for entry C=CC(=O)N1CCN(C(CC(C)(C)C)c2ccc([C@H](C)Nc3ncc4[nH]c(=O)n(CC)c4n3)cc2)CC1 (stereo partly drawn) .
60 to 90%

Lab note: mIDH1 R132H (Homo sapiens, UniProt O75874, R132H) assay, enter inhibition at 0.01 µM for C=CC(=O)N1CCN(C(CC(C)C)c2ccc([C@H](C)Nc3ncc4[nH]c(=O)n(C(C)C)c4n3)cc2)CC1 (stereo partly drawn) here
> 90%

Quote mIDH1 R132H (Homo sapiens, UniProt O75874, R132H) inhibition at 0.01 µM for entry C=CC(=O)N1CCN(C(CC2CC2)c2ccc([C@H](C)Nc3ncc4c(n3)n(C(C)C)c(=O)n4C)cc2)CC1 (stereo partly drawn) .
60 to 90%

Recall the reported inhibition at 0.01 µM of C=CC(=O)N1CCC2(C1)CN(C(CC1CC1)c1ccc([C@H](C)Nc3ncc4[nH]c(=O)n(CC)c4n3)cc1)C2 (stereo partly drawn) when tested on mIDH1 R132H (Homo sapiens, UniProt O75874, R132H).
60 to 90%

// fetch inhibition at 0.01 µM for C=CC(=O)N1CCN(C(CC(C)C)c2ccc([C@H](C)Nc3ncc4[nH]c(=O)n(CC)c4n3)cc2)CC1 (stereo partly drawn) ; system: mIDH1 R132H (Homo sapiens, UniProt O75874, R132H)
> 90%

Write down the reported inhibition at 0.01 µM (system: mIDH1 R132H (Homo sapiens, UniProt O75874, R132H)) of `C=CC(=O)N1CCN(C2(c3ccc([C@H](C)Nc4ncc5[nH]c(=O)n(CC)c5n4)cc3)CCCC2)CC1`
> 90%

----------
Measured inhibition at 0.001 µM, listed per entry for reference.
# MEASURED TARGET: mIDH1 R132H (Homo sapiens, UniProt O75874, R132H)
# Construct: expressed in transfected cells; host or cells: U87MG
# PROTOCOL DESCRIPTION: Detection of 2-HG in supernatant of U87-IDH1 R132H cells
# Assay type: cell-based
# ASSAY CONDITIONS: U-87 MG; 1 nM compound, 72 h, U87MG cells overexpressing mIDH1 R132H, LC-MS-MS; read-out: Inhibition rate on 2-HG in the supernatant of U87-IDH R132H cells, 1 nM

Worked cases, inhibition at 0.001 µM given:
>>> value_reported("C=CC(=O)N1CCN(C(CC23CC(C2)C3)c2ccc([C@H](C)Nc3ncc4[nH]c(=O)n(CC)c4n3)cc2)CC1 (stereo partly drawn)")
"30 to 60%"
>>> value_reported("C=CC(=O)N1CCN(C(CC(C)C)c2ccc([C@H](C)Nc3ncc4[nH]c(=O)n(C5CCC5)c4n3)cc2)CC1 (stereo partly drawn)")
"30 to 60%"
>>> value_reported("C=CC(=O)N1CCN(C(CC)c2ccc([C@H](C)Nc3ncc4[nH]c(=O)n(CC)c4n3)cc2)CC1 (stereo partly drawn)")
"30 to 60%"
>>> value_reported("C=CC(=O)N1CCN(C(CC(C)C)c2ccc([C@H](C)Nc3ncc4[nH]c(=O)n(C(C)C)c4n3)cc2)CC1 (stereo partly drawn)")
"60 to 90%"
>>> value_reported("C=CC(=O)N1CCN(C(CC(C)C)c2ccc([C@H](C)Nc3ncc4[nH]c(=O)n(C5CC5)c4n3)cc2)CC1 (stereo partly drawn)")
"30 to 60%"
>>> value_reported("C=CC(=O)N1CC(N(C)C(CC2CC2)c2ccc([C@H](C)Nc3ncc4[nH]c(=O)n(CC)c4n3)cc2)C1 (stereo partly drawn)")
"30 to 60%"

Give recorded inhibition at 0.001 µM. C=CC(=O)N1CCN(C(CC2CC2)c2ccc([C@H](C)Nc3ncc4c(n3)n(C(C)C)c(=O)n4C)cc2)CC1 (stereo partly drawn)
< 30%

Item C=CC(=O)N1CCN(C(CC(C)(C)C)c2ccc([C@H](C)Nc3ncc4[nH]c(=O)n(CC)c4n3)cc2)CC1 (stereo partly drawn) : provide inhibition at 0.001 µM
30 to 60%

Please give measured inhibition at 0.001 µM of the following entry: C=CC(=O)N1CC2(C1)CN(C(CC1CC1)c1ccc([C@H](C)Nc3ncc4[nH]c(=O)n(CC)c4n3)cc1)C2 (stereo partly drawn)
30 to 60%

Note down inhibition at 0.001 µM recorded for C=CC(=O)N1CCN(C(CC2CC2)c2ccc([C@H](C)Nc3ncc4[nH]c(=O)n(C5CCC5)c4n3)cc2)CC1 (stereo partly drawn)
30 to 60%

Complete the entry with inhibition at 0.001 µM for C=CC(=O)N1CC2(CCN(C(CC3CC3)c3ccc([C@H](C)Nc4ncc5[nH]c(=O)n(CC)c5n4)cc3)C2)C1 (stereo partly drawn)
30 to 60%

Determine its reported inhibition at 0.001 µM: C=CC(=O)NC1CCN(C(CC2CC2)c2ccc([C@H](C)Nc3ncc4[nH]c(=O)n(CC)c4n3)cc2)CC1 (stereo partly drawn)
60 to 90%
